- experimental-parameters: in n-butanol, 288.15 K
recorded-endpoint: solubility (mole fraction)
Note: the reply should be a number with no unit written.

Please fill in: solubility (mole fraction) reported for COc1c(N2CCNC(C)C2)c(F)cc2c(=O)c(C(=O)O)cn(C3CC3)c12 (stereo unspecified) = 0.00169

* * *

- experimental-parameters: in n-propanol, 293.15 K
recorded-endpoint: solubility (mole fraction)

Please fill in: solubility (mole fraction) reported for COc1c(N2CCNC(C)C2)c(F)cc2c(=O)c(C(=O)O)cn(C3CC3)c12 (stereo unspecified) = 0.000778

* * *

- experimental-parameters: in DMF, 303.15 K
recorded-endpoint: solubility (mole fraction)
Note: the reply should be a number with no unit written.

Please fill in: solubility (mole fraction) reported for COc1c(N2CCNC(C)C2)c(F)cc2c(=O)c(C(=O)O)cn(C3CC3)c12 (stereo unspecified) = 0.00653
